Tested on: Escherichia coli
Assay: MIC, sole activity (no second agent)
Assay type: cell-based
Details: in the absence of Rifampicin; strain NCTC9001
Bridge positions count the residues as written; N and C are the ends. Square brackets hold non-standard residues; d marks the D form. Peptide text beside a SMILES is read from it. * marks the point of attachment. ξ: configuration not given here. Thr(3ξ) = CC(O)[C@H](N)C(=O)O; Dab = NCC[C@H](N)C(=O)O; X1 = CCCCCCC(O)C(=O)*; Ava = NCCCCC(=O)O
ENDPOINT: MIC E. coli NCTC9001 (micrograms/mL)
Please reply with the bare figure in micrograms/mL and do not write the unit itself.

>>> meas_value("CC(C)C[C@@H]1NC(=O)[C@@H](Cc2ccccc2)NC(=O)[C@H](CCN)NC(=O)[C@@H](NC(=O)[C@H](CCN)NC(=O)[C@@H](NC(=O)CCCCN)C(C)O)CCNC(=O)[C@H](C(C)O)NC(=O)[C@H](CCN)NC(=O)[C@H](CCN)NC1=O (some centres unmarked) [Example 6, 5-Aminopentanoyl polymyxin B nonapeptide] (H-[Ava][Thr(3ξ)][Dab][Dab][Dab][dF]L[Dab][Dab][Thr(3ξ)]; lactam 4-C)")
2

Continue with the next compound.
Param item = CCCCCCC(O)C(=O)N[C@H](C(=O)N[C@@H](CCN)C(=O)N[C@H]1CCNC(=O)[C@H]([C@@H](C)O)NC(=O)[C@H](CCN)NC(=O)[C@H](CCN)NC(=O)[C@H](CC(C)C)NC(=O)[C@@H](Cc2ccccc2)NC(=O)[C@H](CCN)NC1=O)[C@@H](C)O (some centres unmarked) [Example 1] (X1-T[Dab][Dab][Dab][dF]L[Dab][Dab]T; lactam 3-C) ; retrieve measured MIC E. coli NCTC9001.
2
